Reported STK11 functional score values for the following variants.
B1: library; numbered along this chain (parent)
chain: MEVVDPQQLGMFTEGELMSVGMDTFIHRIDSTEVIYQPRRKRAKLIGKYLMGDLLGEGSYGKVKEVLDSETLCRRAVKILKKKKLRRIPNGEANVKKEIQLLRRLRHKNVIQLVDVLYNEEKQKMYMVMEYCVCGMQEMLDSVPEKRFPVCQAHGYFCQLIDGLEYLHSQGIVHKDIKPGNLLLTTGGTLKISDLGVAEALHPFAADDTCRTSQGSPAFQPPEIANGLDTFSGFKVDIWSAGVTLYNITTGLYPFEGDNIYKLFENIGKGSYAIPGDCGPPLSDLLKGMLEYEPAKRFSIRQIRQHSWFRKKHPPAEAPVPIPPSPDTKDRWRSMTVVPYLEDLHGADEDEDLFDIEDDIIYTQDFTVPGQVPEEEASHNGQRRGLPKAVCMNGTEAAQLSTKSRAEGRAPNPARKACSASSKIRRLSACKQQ

Variants of: B1
Test: STK11 functional score (HeLa growth suppression), rescaled enrichment; synonymous median = 1, nonsense median = 0 (normalised score)
Conditions: with HeLa; variant type: missense

>  <MUTANT ID>
Q152E

>  <STK11 functional score>
0.844

$$$$
>  <MUTANT ID>
K329G

>  <STK11 functional score>
1.35

$$$$
>  <MUTANT ID>
P413T

>  <STK11 functional score>
1.44

$$$$
>  <MUTANT ID>
A389L

>  <STK11 functional score>
1.54

$$$$
>  <MUTANT ID>
V372A

>  <STK11 functional score>
1.48

$$$$
>  <MUTANT ID>
C134L

>  <STK11 functional score>
0.479

$$$$
>  <MUTANT ID>
E376R

>  <STK11 functional score>
1.39

$$$$
>  <MUTANT ID>
M127Y

>  <STK11 functional score>
1.24

$$$$
>  <MUTANT ID>
R304V

>  <STK11 functional score>
1.51

$$$$
>  <MUTANT ID>
G385P

>  <STK11 functional score>
1.26

$$$$
>  <MUTANT ID>
P413H

>  <STK11 functional score>
1.61

$$$$
>  <MUTANT ID>
E92F

>  <STK11 functional score>
1.56

$$$$
>  <MUTANT ID>
L80N

>  <STK11 functional score>
0.951

$$$$
>  <MUTANT ID>
L117T

>  <STK11 functional score>
0.762

$$$$
>  <MUTANT ID>
I356Y

>  <STK11 functional score>
1.12

$$$$
>  <MUTANT ID>
L263M

>  <STK11 functional score>
0.891

$$$$
>  <MUTANT ID>
V337W

>  <STK11 functional score>
0.54

$$$$
>  <MUTANT ID>
I99W

>  <STK11 functional score>
0.631

$$$$
>  <MUTANT ID>
G61S

>  <STK11 functional score>
0.916

$$$$
>  <MUTANT ID>
A93P

>  <STK11 functional score>
1.68

$$$$
>  <MUTANT ID>
P324C

>  <STK11 functional score>
1.33

$$$$
>  <MUTANT ID>
C391W

>  <STK11 functional score>
0.764

$$$$
